Molecular target: delF508-CFTR (Homo sapiens, UniProt P13569, DEL508-508)
Construct: functional activity of the CFTR channel (Chloride ion transport) in patient derived primary human bronchial epithelial cells
Sequence (P13569 with tags, fused parts or gaps DEL508-508): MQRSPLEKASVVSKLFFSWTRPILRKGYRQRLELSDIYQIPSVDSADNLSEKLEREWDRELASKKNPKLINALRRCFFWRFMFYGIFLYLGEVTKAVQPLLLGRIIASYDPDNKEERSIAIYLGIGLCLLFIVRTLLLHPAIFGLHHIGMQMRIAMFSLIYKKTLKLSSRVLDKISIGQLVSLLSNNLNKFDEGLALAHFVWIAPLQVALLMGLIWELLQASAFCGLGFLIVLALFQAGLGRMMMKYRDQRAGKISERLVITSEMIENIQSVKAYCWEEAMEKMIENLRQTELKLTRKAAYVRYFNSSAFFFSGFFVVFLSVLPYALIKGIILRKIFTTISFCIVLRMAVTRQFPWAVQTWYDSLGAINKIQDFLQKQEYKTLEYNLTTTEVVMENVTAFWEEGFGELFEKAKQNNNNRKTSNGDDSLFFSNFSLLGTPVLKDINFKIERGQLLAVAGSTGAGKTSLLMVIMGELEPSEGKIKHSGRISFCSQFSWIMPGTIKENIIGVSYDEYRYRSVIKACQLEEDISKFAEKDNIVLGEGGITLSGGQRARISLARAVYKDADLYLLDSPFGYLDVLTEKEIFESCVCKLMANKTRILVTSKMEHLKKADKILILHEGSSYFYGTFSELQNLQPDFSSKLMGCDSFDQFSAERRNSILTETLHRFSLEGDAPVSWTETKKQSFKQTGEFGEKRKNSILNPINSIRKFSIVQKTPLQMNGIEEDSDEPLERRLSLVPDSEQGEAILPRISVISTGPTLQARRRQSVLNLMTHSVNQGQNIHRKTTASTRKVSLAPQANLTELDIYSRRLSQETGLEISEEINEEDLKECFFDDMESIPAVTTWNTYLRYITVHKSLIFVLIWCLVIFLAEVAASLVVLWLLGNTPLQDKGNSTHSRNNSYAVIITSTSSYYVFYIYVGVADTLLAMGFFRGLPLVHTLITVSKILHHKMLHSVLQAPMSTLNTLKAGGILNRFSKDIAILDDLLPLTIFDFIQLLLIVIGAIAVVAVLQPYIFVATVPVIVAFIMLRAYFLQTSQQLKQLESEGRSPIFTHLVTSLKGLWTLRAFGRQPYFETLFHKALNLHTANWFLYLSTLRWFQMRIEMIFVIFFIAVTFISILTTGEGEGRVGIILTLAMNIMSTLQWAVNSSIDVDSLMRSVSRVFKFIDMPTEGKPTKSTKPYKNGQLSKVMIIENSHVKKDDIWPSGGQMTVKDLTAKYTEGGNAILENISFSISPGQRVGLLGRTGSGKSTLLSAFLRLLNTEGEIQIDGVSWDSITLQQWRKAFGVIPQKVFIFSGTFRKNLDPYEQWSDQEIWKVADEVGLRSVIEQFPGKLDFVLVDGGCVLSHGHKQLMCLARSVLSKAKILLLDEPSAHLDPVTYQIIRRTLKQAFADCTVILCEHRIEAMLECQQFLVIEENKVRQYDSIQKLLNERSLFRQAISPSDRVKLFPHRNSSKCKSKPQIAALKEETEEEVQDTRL
Assay: Measurement of delF508-CFTR functional activity in primary human bronchial epithelial cells (HBECs) using Multi-Transepithelial Clamp Circuit (MTECC-24) assay
Conditions: primary CF HBECs; test compound added 24h before assay, in the presence of potentiator; mean of at least two replicates; read-out: MTECC24 CFHBEC- EC50
Measured Metric: EC50 (nM)
// units = nM; emit number, no label

Inquiry: Requested field: EC50. Item: Cc1ccccc1-c1nc(NS(=O)(=O)c2cccc(N3CCN(CC(F)F)CC3)n2)ccc1C(F)(F)F
Reply text: 4.6

Inquiry: Request the reported EC50 associated with Cc1cccc(C)c1-c1nc(NS(=O)(=O)c2cccc(N3CCC(C)(C(=O)O)CC3)n2)ccc1Cl
Reply text: 11

Inquiry: Could you tell me which EC50 is on file for Cc1ccccc1-c1nc(NS(=O)(=O)c2cccc(N3CCN(C)CC3)n2)ccc1C(F)(F)F ?
Reply text: 31.7
